Test: Solubility assay (kinetic solubility, PBS pH 7)
Format: physicochemical
Details: pH 7, aqueous buffer, kinetic from dmso stock, pH 7, PBS; read-out: Solubility
Positions of bridges follow the written chain, without caps; N, C: chain ends. Non-standard residues stand in square brackets, D forms with d. Residues, ends and D or L forms follow the SMILES beside them. Lys(N3) = [N-]=[N+]=NCCCC[C@H](N)C(=O)O; R8 = C=CCCCCCC[C@@](C)(N)C(=O)O; Cba = N[C@@H](CC1CCC1)C(=O)O; S5 = C=CCCC[C@](C)(N)C(=O)O; βAla = NCCC(=O)O
solubility kinetic values, listed per item
Returns: string containing the numeric result and its unit.

| COMPOUND | RECORDED MEASUREMENT |
| --- | --- |
| CC(=O)N[C@@H](CC(C)C)C(=O)N[C@@H](CCCNC(=N)N)C(=O)N[C@@H](Cc1ccccc1)C(=O)N[C@]1(C)CCCCCCC=CCCC[C@@](C)(C(=O)N[C@@H](CO)C(=O)N[C@@H](C)C(=O)N[C@@H](C)C(N)=O)NC(=O)[C@H](CC2CCC2)NC(=O)[C@H](CC(C)C)NC(=O)[C@H](CCC(N)=O)NC(=O)[C@H](Cc2c[nH]c3ccccc23)NC(=O)[C@H](Cc2ccc(O)cc2)NC(=O)[C@H](CCC(=O)O)NC1=O [MP-1192] (Ac-LRF[R8]EYWQL[Cba][S5]SAA-NH2; staple 4-11) | 3 µM |
| CC(=O)N[C@@H](CC(C)C)C(=O)N[C@H](C(=O)N[C@@H](Cc1ccccc1)C(=O)N[C@]1(C)CCCCCCC=CCCC[C@@](C)(C(=O)N[C@@H](CO)C(=O)N[C@@H](C)C(=O)N[C@@H](C)C(N)=O)NC(=O)[C@H](CC2CCC2)NC(=O)[C@H](C)NC(=O)[C@H](C)NC(=O)[C@H](Cc2c[nH]c3ccccc23)NC(=O)[C@H](Cc2ccc(O)cc2)NC(=O)[C@H](CCC(=O)O)NC1=O)[C@@H](C)O [MP-865] (Ac-LTF[R8]EYWAA[Cba][S5]SAA-NH2; staple 4-11) | 84.5 µM |

## Task What value of measured solubility kinetic is listed for CC(=O)N[C@@H](CCCCN=[N+]=[N-])C(=O)NCCC(=O)N[C@@H](CC(C)C)C(=O)N[C@H](C(=O)N[C@@H](CCC(=O)O)C(=O)N[C@]1(C)CCCCCCC=CCCC[C@@](C)(C(=O)N[C@@H](CO)C(=O)N[C@@H](C)C(=O)N[C@@H](C)C(N)=O)NC(=O)[C@H](CC2CCC2)NC(=O)[C@H](CCC(N)=O)NC(=O)[C@H](C)NC(=O)[C@H](Cc2c[nH]c3ccccc23)NC(=O)[C@H](Cc2ccc(O)cc2)NC(=O)[C@H](Cc2ccccc2)NC1=O)[C@@H](C)O [MP-123] (Ac-[Lys(N3)][βAla]LTE[R8]FYWAQ[Cba][S5]SAA-NH2; staple 6-13) ?
## Result 2 µM

## Task For CC(=O)N[C@@H](CC(C)C)C(=O)N[C@H](C(=O)N[C@@H](C)C(=O)N[C@]1(C)CCCCCCC=CCCC[C@@](C)(C(=O)N[C@@H](CO)C(=O)N[C@@H](C)C(=O)N[C@H](C)C(N)=O)NC(=O)[C@H](CC2CCC2)NC(=O)[C@H](CC(C)C)NC(=O)[C@H](CCC(N)=O)NC(=O)[C@H](Cc2c[nH]c3ccccc23)NC(=O)[C@H](Cc2ccc(O)cc2)NC(=O)[C@H](CCC(=O)O)NC1=O)[C@@H](C)O [MP-671] (Ac-LTA[R8]EYWQL[Cba][S5]SA[dA]-NH2; staple 4-11) then?
## Result 74.3 µM

## Task Another compound to check: CC(=O)N[C@@H](CCCCN=[N+]=[N-])C(=O)NCCC(=O)N[C@@H](CC(C)C)C(=O)N[C@H](C)C(=O)N[C@@H](Cc1ccccc1)C(=O)N[C@]1(C)CCCCCCC=CCCC[C@@](C)(C(=O)N[C@@H](CO)C(=O)N[C@@H](C)C(=O)N[C@@H](C)C(N)=O)NC(=O)[C@H](CC2CCC2)NC(=O)[C@H](CCC(N)=O)NC(=O)[C@H](C)NC(=O)[C@H](Cc2c[nH]c3ccccc23)NC(=O)[C@H](Cc2ccc(O)cc2)NC(=O)[C@H](CCC(=O)O)NC1=O [MP-7471] (Ac-[Lys(N3)][βAla]L[dA]F[R8]EYWAQ[Cba][S5]SAA-NH2; staple 6-13)
## Result 93.5 µM

## Task Query CC(=O)N[C@@H](CCCCN=[N+]=[N-])C(=O)NCCC(=O)N[C@@H](C)C(=O)N[C@H](C(=O)N[C@@H](Cc1ccccc1)C(=O)N[C@]1(C)CCCCCCC=CCCC[C@@](C)(C(=O)N[C@@H](CO)C(=O)N[C@@H](C)C(=O)N[C@@H](C)C(N)=O)NC(=O)[C@H](CC2CCC2)NC(=O)[C@H](CCC(N)=O)NC(=O)[C@H](C)NC(=O)[C@H](Cc2c[nH]c3ccccc23)NC(=O)[C@H](Cc2ccc(O)cc2)NC(=O)[C@H](CCC(=O)O)NC1=O)[C@@H](C)O [MP-952, AZIDE-ATSP-7041 (L1A)] next
## Result 109 µM

## Task Next entry: `CC(=O)N[C@@H](CC(C)C)C(=O)N[C@H](C(=O)N[C@@H](Cc1ccccc1)C(=O)NC(C)(C)C(=O)N[C@@H](CCC(=O)O)C(=O)N[C@@H](Cc1ccc(O)cc1)C(=O)N[C@@H](Cc1c[nH]c2ccccc12)C(=O)N[C@@H](CCC(N)=O)C(=O)N[C@@H](CC(C)C)C(=O)N[C@@H](CC1CCC1)C(=O)NC(C)(C)C(=O)N[C@@H](CO)C(=O)N[C@@H](C)C(=O)N[C@@H](C)C(N)=O)[C@@H](C)O`
## Result 24 µM

## Task Next entry: CC(=O)N[C@@H](CC(C)C)C(=O)N[C@H](C(=O)N[C@@H](Cc1ccccc1)C(=O)N[C@]1(C)CCCCCCC=CCCC[C@@](C)(C(=O)N[C@@H](CO)C(=O)N[C@@H](C)C(=O)N[C@@H](C)C(N)=O)NC(=O)[C@H](CC2CCC2)NC(=O)[C@H](CCCNC(=N)N)NC(=O)[C@H](CCC(N)=O)NC(=O)[C@H](Cc2c[nH]c3ccccc23)NC(=O)[C@H](Cc2ccc(O)cc2)NC(=O)[C@H](CCC(=O)O)NC1=O)[C@@H](C)O [MP-195] (Ac-LTF[R8]EYWQR[Cba][S5]SAA-NH2; staple 4-11)
## Result 3 µM
